Target: ERBB2; further: test concentration or dose not given here
Details: ASO
These antisense oligonucleotides have a phosphorothioate backbone; sugars and methylation of C are not fully specified.
metric: remaining target (mRNA or protein) (fraction of control)
Provide a numeric answer; units are not to be included.

Find the recorded remaining target (mRNA or protein) (fraction of control) belonging to GCACTTCTCACACCGCTG and report it. 0.51

Find the recorded remaining target (mRNA or protein) (fraction of control) belonging to CCACAAAGACTCCCCAGT and report it. 0.44

Find the recorded remaining target (mRNA or protein) (fraction of control) belonging to TCAGGTTTCACACCGCTG and report it. 0.66

Find the recorded remaining target (mRNA or protein) (fraction of control) belonging to CCATCAGTCTCAGAGGGC and report it. 0.3

Find the recorded remaining target (mRNA or protein) (fraction of control) belonging to ACCGCAGAGATGATGGAC and report it. 0.98

Find the recorded remaining target (mRNA or protein) (fraction of control) belonging to GCACCACCTGGCAGCCCT and report it. 0.73

Find the recorded remaining target (mRNA or protein) (fraction of control) belonging to CCTGCCTCACTTGGTTGT and report it. 0.64

Find the recorded remaining target (mRNA or protein) (fraction of control) belonging to CTGGTTCACACTGGCACG and report it. 0.4

Find the recorded remaining target (mRNA or protein) (fraction of control) belonging to GGCAGTGTTGGAGGCTGG and report it. 0.57

Find the recorded remaining target (mRNA or protein) (fraction of control) belonging to CAGGGTCAGCGAGTAGGC and report it. 0.89

Find the recorded remaining target (mRNA or protein) (fraction of control) belonging to CCTTTCCAGAGTGGCACC and report it. 0.75

Find the recorded remaining target (mRNA or protein) (fraction of control) belonging to GGGTGGCACGGCAAACAG and report it. 0.81

Find the recorded remaining target (mRNA or protein) (fraction of control) belonging to CCAGCAGTGAGCGGTAGA and report it. 0.41

Find the recorded remaining target (mRNA or protein) (fraction of control) belonging to GGTCTCGGGACTGGCAGG and report it. 0.68

Find the recorded remaining target (mRNA or protein) (fraction of control) belonging to GCAGCCGAGCCAGCCCGA and report it. 0.61

Find the recorded remaining target (mRNA or protein) (fraction of control) belonging to GTGGATGTCAGGCAGATG and report it. 0.86

Find the recorded remaining target (mRNA or protein) (fraction of control) belonging to ACTCTGGTGGGTGAACCG and report it. 0.86

Find the recorded remaining target (mRNA or protein) (fraction of control) belonging to CCGCACATCCTCCAGGTA and report it. 0.64

Find the recorded remaining target (mRNA or protein) (fraction of control) belonging to GTTGGGCATCGCTCCGCT and report it. 0.59

Find the recorded remaining target (mRNA or protein) (fraction of control) belonging to GACCACGACCAGCAGAAT and report it. 0.76

Find the recorded remaining target (mRNA or protein) (fraction of control) belonging to GCAGCGGGAGCCCTTACA and report it. 0.83

Find the recorded remaining target (mRNA or protein) (fraction of control) belonging to GCTGGTTGTTCTTGTGGA and report it. 0.73

Find the recorded remaining target (mRNA or protein) (fraction of control) belonging to GCACGAAGCAGAGGTGGG and report it. 0.47

Find the recorded remaining target (mRNA or protein) (fraction of control) belonging to TCGGAGCCAGCCCCTTCG and report it. 0.53

Find the recorded remaining target (mRNA or protein) (fraction of control) belonging to GGGTGGTATTGTTCAGCG and report it. 0.94

Find the recorded remaining target (mRNA or protein) (fraction of control) belonging to TGATGCCAGCAGAAGTCA and report it. 0.94

Find the recorded remaining target (mRNA or protein) (fraction of control) belonging to GACCATAGCACACTCGGG and report it. 0.57

Find the recorded remaining target (mRNA or protein) (fraction of control) belonging to CAGGAAGGACAGGCTGGC and report it. 0.94

Find the recorded remaining target (mRNA or protein) (fraction of control) belonging to CCCTTGTAGACTGTGCCA and report it. 0.56

Find the recorded remaining target (mRNA or protein) (fraction of control) belonging to TTGACACACTGGGTGGGC and report it. 0.61

Find the recorded remaining target (mRNA or protein) (fraction of control) belonging to CGAAGGCTGGGCTGAAGG and report it. 0.73

Find the recorded remaining target (mRNA or protein) (fraction of control) belonging to CACTGGTAACTGCCCTCA and report it. 0.54

Find the recorded remaining target (mRNA or protein) (fraction of control) belonging to GTGGTTGAAGTGGAGGCA and report it. 0.98

Find the recorded remaining target (mRNA or protein) (fraction of control) belonging to GCCAGGGCATAGTTGTCC and report it. 0.81

Find the recorded remaining target (mRNA or protein) (fraction of control) belonging to TTCTGCTGCCGTCGCTTG and report it. 0.75

Find the recorded remaining target (mRNA or protein) (fraction of control) belonging to GGGAACTCAAGCAGGAAG and report it. 0.68
